These data points were gathered from patent EP4745135A1.

Target: human Cereblon WT GST-tagged protein (Homo sapiens, UniProt Q96SW2)
Construct: purchased CISBIO 64BDCRBNPEH
Sequence (Q96SW2 whole entry): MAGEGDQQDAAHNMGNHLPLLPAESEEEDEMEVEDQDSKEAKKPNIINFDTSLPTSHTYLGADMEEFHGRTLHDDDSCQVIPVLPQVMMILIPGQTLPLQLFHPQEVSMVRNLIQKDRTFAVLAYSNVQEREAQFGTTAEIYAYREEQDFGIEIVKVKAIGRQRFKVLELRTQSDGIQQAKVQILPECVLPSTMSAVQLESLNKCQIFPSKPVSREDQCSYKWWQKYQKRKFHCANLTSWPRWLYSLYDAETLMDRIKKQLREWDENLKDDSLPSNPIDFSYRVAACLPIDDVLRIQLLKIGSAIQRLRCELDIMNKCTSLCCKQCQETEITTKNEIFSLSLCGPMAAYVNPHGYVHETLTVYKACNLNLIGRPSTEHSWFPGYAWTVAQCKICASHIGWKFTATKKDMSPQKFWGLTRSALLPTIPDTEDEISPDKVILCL
Test: CRBN-binding affinity, HTRF (CEREBLON BINDING kit)
Conditions: read-out: Inhibition Rate at 2 µM (%)
Method: The CEREBLON BINDING kits (specification: 10,000 tests; product number: Catalog # 64BDCRBNPEH; CISBIO company) was used to determine the CRBN binding ability of the compounds to be tested through a HTRF method (homogeneous time-resolved fluorescence). The specific methods are as follows: • 1. […] Specifically, diluent #9 (1X) solution was used as the diluent, and multiple concentration gradients were set. […] Then, 2.5 µL of human Cereblon WT GST-tagged protein solution was added to each well. […]
Form field: inhibition at 2 µM (one value per entry).

Sample records with inhibition at 2 µM:
- O=C1CCC(N2Cc3cc(CN4CCN(Cc5ccccc5-c5ccc(Cl)cc5)CC4)ccc3C2=S)C(=O)N1 (centres unmarked): 60 to 80%
- O=C1CCC(N2Cc3cc(CN4CCC(c5ccc(Br)cc5)CC4)ccc3C2=S)C(=O)N1 (centres unmarked): 60 to 80%
- O=C1CCC(N2Cc3c(CN4CCN(c5nc6c(c(N7CCOCC7)n5)SCC6)CC4)cccc3C2=S)C(=O)N1 (centres unmarked): 80 to 100%
- O=C1CCC(N2Cc3c(CN4CCN(c5nsc6cc(F)ccc56)CC4)cccc3C2=S)C(=O)N1 (centres unmarked): 80 to 100%
- O=C1CCC(N2Cc3c(CN4CCN(c5ccncc5)CC4)cccc3C2=S)C(=O)N1 (centres unmarked): 80 to 100%

IN: inhibition at 2 µM lookup needed for O=C1CCC(N2Cc3cc(CN4CCN(c5nc(N6CCOCC6)nc6ccsc56)CC4)ccc3C2=S)C(=O)N1 (centres unmarked) , thanks.
OUT: 80 to 100%

###

Biological target: human Cereblon WT GST-tagged protein (Homo sapiens)
Construct: purchased CISBIO 64BDCRBNPEH
Test: CRBN-binding affinity, HTRF (CEREBLON BINDING kit)
Details: read-out: Inhibition Rate at 0.5 µM (%)
readout kind: inhibition at 0.5 µM

* Cc1cc(N2CCN(Cc3ccc4c(c3)CN(C3CCC(=O)NC3=O)C4=S)CC2)cs1 (stereo not drawn) | 60 to 80%
* O=C1CCC(N2Cc3cc(CN4CCN(c5nc(Cl)nc6ccsc56)CC4)ccc3C2=S)C(=O)N1 (stereo not drawn) | 80 to 100%
* O=C1CCC(N2Cc3cc(CN4CCN(c5nc6c(c(N7CCOCC7)n5)SCC6)CC4)ccc3C2=S)C(=O)N1 (stereo not drawn) | 60 to 80%

IN: Param readout = inhibition at 0.5 µM; param system = human Cereblon WT GST-tagged protein (Homo sapiens); param query = O=C1CCC(N2Cc3cc(CN4CCC(N5CCCc6cc(F)ccc65)CC4)ccc3C2=S)C(=O)N1 (stereo not drawn) ; response: value
OUT: 60 to 80%

IN: Next compound: Cc1sc2ncnc(N3CCN(Cc4ccc5c(c4)CN(C4CCC(=O)NC4=O)C5=S)CC3)c2c1C (stereo not drawn)
OUT: 80 to 100%

IN: Next compound: O=C1CCC(N2Cc3c(CN4CCN(c5cc(Cl)cc(Cl)c5)CC4)cccc3C2=S)C(=O)N1 (stereo not drawn)
OUT: 40 to 53%

IN: Next compound: O=C1CCC(N2Cc3c(CN4C[C@H]5C[C@@H]4CN5c4cccc(Cl)c4Cl)cccc3C2=S)C(=O)N1 (stereo in doubt)
OUT: 30 to 40%

IN: Next compound: O=C1CCC(N2Cc3c(CN4CC=C(c5cccc6cnccc56)CC4)cccc3C2=S)C(=O)N1 (stereo not drawn)
OUT: 60 to 80%

IN: Next compound: O=C1CCC(N2Cc3c(CN4CCN(c5ccncc5Cl)CC4)cccc3C2=S)C(=O)N1 (stereo not drawn)
OUT: 60 to 80%

IN: Next compound: Cc1nc(C2CCN(Cc3cccc4c3CN(C3CCC(=O)NC3=O)C4=S)CC2)c2c3c(sc2n1)CCC3 (stereo not drawn)
OUT: 60 to 80%

IN: Next compound: Cn1cc(C2CCN(Cc3ccc4c(c3)CN(C3CCC(=O)NC3=O)C4=S)CC2)c2ccc(F)cc21 (stereo not drawn)
OUT: 53 to 60%

IN: Next compound: O=C1CCC(N2Cc3c(CN4CC=C(c5ccco5)CC4)cccc3C2=S)C(=O)N1 (stereo not drawn)
OUT: 60 to 80%

###

Target: human Cereblon WT GST-tagged protein (Homo sapiens)
Construct: purchased CISBIO 64BDCRBNPEH
Test: CRBN-binding affinity, HTRF (CEREBLON BINDING kit)
Conditions: read-out: Inhibition Rate at 0.5 µM (%)
Form field: inhibition at 0.5 µM (one value per entry).

Sample records with inhibition at 0.5 µM:
• O=C1CCC(N2Cc3c(CN4CCN(c5cnccn5)CC4)cccc3C2=S)C(=O)N1 (centres unmarked) = 60 to 80%
• O=C1CCC(N2Cc3c(CN4CCN(c5ncccc5F)CC4)cccc3C2=S)C(=O)N1 (centres unmarked) = 60 to 80%
• Cc1nc(C2CCN(Cc3ccc4c(c3)CN(C3CCC(=O)NC3=O)C4=S)CC2)c2ccsc2n1 (centres unmarked) = 60 to 80%
• CC1(C)CCC(CN2CCN(Cc3cccc4c3CN(C3CCC(=O)NC3=O)C4=S)CC2)=C(c2ccc(Cl)cc2)C1 (centres unmarked) = 30 to 40%

IN: inhibition at 0.5 µM lookup needed for Cc1nc(N2CCN(Cc3cccc4c3CN(C3CCC(=O)NC3=O)C4=S)CC2)c2c3c(sc2n1)CCC3 (centres unmarked) , thanks.
OUT: 53 to 60%

IN: Next compound: Cc1nc(C2CCN(Cc3ccc4c(c3)CN(C3CCC(=O)NC3=O)C4=S)CC2)c2c(-c3ccccc3)csc2n1 (centres unmarked)
OUT: 40 to 53%

IN: Next compound: O=C1CCC(N2Cc3c(CN4CCN(C(c5ccccc5)c5ccccn5)CC4)cccc3C2=S)C(=O)N1 (centres unmarked)
OUT: 60 to 80%

IN: Next compound: O=C1CCC(N2Cc3cc(CN4CCN(c5cccc(C(F)(F)F)n5)CC4)ccc3C2=S)C(=O)N1 (centres unmarked)
OUT: 60 to 80%

###

Form field: inhibition at 0.5 µM (one value per entry).
Target: human Cereblon WT GST-tagged protein (Homo sapiens, UniProt Q96SW2)
Construct: purchased CISBIO 64BDCRBNPEH
Assay: CRBN-binding affinity, HTRF (CEREBLON BINDING kit)
Details: read-out: Inhibition Rate at 0.5 µM (%)

Sample records with inhibition at 0.5 µM:
* Cc1nc(N2CCN(Cc3cccc4c3CN(C3CCC(=O)NC3=O)C4=S)CC2)c2ccsc2n1 (stereo not shown) [GT-08922] | 60 to 80%
* O=C1CCC(N2Cc3cc(CN4CC5CC(C4)N5c4cccc(Cl)c4Cl)ccc3C2=S)C(=O)N1 (stereo not shown) [GT-08476] | 60 to 80%
* Cc1csc2ncnc(N3CCN(Cc4cccc5c4CN(C4CCC(=O)NC4=O)C5=S)CC3)c12 (stereo not shown) [GT-08913] | 60 to 80%

IN: inhibition at 0.5 µM lookup needed for O=C1CCC(N2Cc3cc(CN4CCN(c5cc(Cl)ccc5Cl)CC4)ccc3C2=S)C(=O)N1 (stereo not shown) [GT-08611] , thanks.
OUT: 30 to 40%

IN: Next compound: O=C1CCC(N2Cc3c(CN4CC5CCC(C4)N5C(c4ccccc4)c4ccccc4)cccc3C2=S)C(=O)N1 (stereo not shown) [GT-08234]
OUT: 40 to 53%

IN: Next compound: O=C1CCC(N2Cc3c(CN4CCC(N5CCc6cc(F)ccc65)CC4)cccc3C2=S)C(=O)N1 (stereo not shown) [GT-08845]
OUT: 40 to 53%

IN: Next compound: O=C1CCC(N2Cc3c(CN4CC=C(c5n[nH]c6cc(F)ccc56)CC4)cccc3C2=S)C(=O)N1 (stereo not shown) [GT-08850]
OUT: 60 to 80%

IN: Next compound: O=C1CCC(N2Cc3c(CN4CCN(c5cccnc5)CC4)cccc3C2=S)C(=O)N1 (stereo not shown) [GT-08706]
OUT: 53 to 60%

IN: Next compound: O=C1CCC(N2Cc3c(CN4CCC(N(c5ccccc5)c5ccccn5)CC4)cccc3C2=S)C(=O)N1 (stereo not shown) [GT-08243]
OUT: 20 to 30%

IN: Next compound: O=C1CCC(N2Cc3c(CN4CCN(c5cccc(Cl)n5)CC4)cccc3C2=S)C(=O)N1 (stereo not shown) [GT-08693]
OUT: 60 to 80%

###

Form field: inhibition at 0.5 µM (one value per entry).
Target: human Cereblon WT GST-tagged protein (Homo sapiens)
Construct: purchased CISBIO 64BDCRBNPEH
Assay: CRBN-binding affinity, HTRF (CEREBLON BINDING kit)
Details: read-out: Inhibition Rate at 0.5 µM (%)

Sample records with inhibition at 0.5 µM:
* O=C1CCC(N2Cc3c(CN4CCC(c5ccc(Br)cc5)CC4)cccc3C2=S)C(=O)N1 (stereo not drawn) | 40 to 53%
* O=C1CCC(N2Cc3c(CN4CCN(C(=O)C5=C(c6ccc(F)cc6)CCCC5)CC4)cccc3C2=S)C(=O)N1 (stereo not drawn) | 30 to 40%

IN: Param readout = inhibition at 0.5 µM; param system = human Cereblon WT GST-tagged protein (Homo sapiens); param query = O=C1CCC(N2Cc3cc(CN4CC=C(c5ncc6ccsc6n5)CC4)ccc3C2=S)C(=O)N1 (stereo not drawn) ; response: value
OUT: 60 to 80%
